- assayedSystem: Homeobox protein Hox-A13 (Mus musculus)
- experimentNotes: inhibitors of HoxA13-DNA binding, primary screen, biochemical, fluorescence polarization, labeled oligonucleotide (AID 1185)
- conditionDetails: 15 min, higher = more signal, called active from +8 up or from −8 down
Cut-off -2 on z-score, inclusive. At or above means YES; below means NO.

molecule | className
C[N+](C)(C)CCCC[C@@H]1NC(=O)[C@H]2C[C@@H](C(=O)NCCCCCN)[C@@H](c3ccc(O)cc3)N2C1=O | YES
O=C/C=C/c1ccc(-c2ccccc2)cc1 | YES
CC(C)c1ccc(NN2C(C(O)C(C)c3ccccc3)C=CC3C(=O)N(c4ccccc4)C(=O)C32)cc1 (centres undefined) | NO
CC(CO)N1C(=O)[C@@H]2[C@H]3C(=O)OCC=C[C@H]3OC23C=CCN(c2ccc4ccccc4c2)C(=O)[C@@H]13 (some centres undefined) | NO
CCOC(=O)C[C@H]1[C@H](OC(=O)c2cc3ccccc3oc2=O)[C@@H](NC(=O)Cc2ccc(OC)cc2)c2cc(OCCCO)ccc2N1C(=O)Cc1ccc(OC)cc1 | NO
[N-]=[N+]=Nc1ccccc1C[C@@]1(C(=O)NCC(O)CO)N=C(c2ccc(OCCCO)cc2)O[C@@H]1c1ccccc1N=[N+]=[N-] (some centres undefined) | NO
COC(=O)[C@@]1(Cc2ccc(OC)cc2)[C@@H]2[C@@H](CC(=O)[C@H]2CC(=O)C(=O)N(C)C)CN1C(=O)c1ccccc1 | NO
COc1ccc([Si](C)(C)[C@H]2[C@H](CC(=O)N3CCC[C@H]3CO)O[C@@]3(C(=O)N(Cc4cccc(N5CCCCC5=O)c4)c4ccccc43)[C@@H]2C)cc1 | NO
O=C1O[C@H](c2ccccc2)[C@H](c2ccccc2)N2[C@H]1[C@@H](C(=O)N1CCCCCCC1)[C@]1(C(=O)Nc3ccc(C#CCCO)cc31)[C@H]2c1ccc(O)cc1 | YES
C=C(C(=O)CC[C@H](OC(=O)c1ccccc1-c1ccccc1C(=O)O)c1ccc(OCCO)cc1)C(C)C | NO
C=CCC(OC(C)=O)[C@@H]1[C@@H](N(Cc2ccc(-c3ccccc3)cc2)C(=O)Cc2ccc(OC)cc2)c2cc(OCCCO)ccc2N1C(=O)Cc1ccc(OC)cc1 (some centres undefined) | NO
CS(=O)(=O)CCOC(=O)C1=CC(CCCO)=CC(C2CC2)N(Cc2sc3ccccc3c2Cl)C=C1C(=O)OCCS(C)(=O)=O (centres undefined) | NO
C=CCC(OC(C)=O)[C@@H]1[C@@H](N(Cc2ccc(-c3ccccc3)cc2)C(=O)Cc2ccc(OC)cc2)c2cc(OCCCO)ccc2N1C(=O)c1ccc2ccccc2c1 (some centres undefined) | YES
COc1ccc(C#Cc2ccc3c(c2)[C@]2(C(=O)N3)[C@H](c3ccccc3OCCO)N3[C@H](c4ccccc4)[C@H](c4ccccc4)OC(=O)[C@H]3[C@@H]2C(=O)NC[C@H](O)c2ccccc2)cc1 | YES

---

- experimentNotes: cell viability in Huh7 cells, primary screen, cytotoxicity control for HCV replication inhibitor project, CellTiter-Glo luminescence, basal, 48 h (AID 1143);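 further: Huh7 hepatoma cells carrying a hepatitis C replication reporter with no stimulus; test concentration not given here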
- conditionDetails: Huh7 HCV replicon, higher = more signal, called active from +8 up or from −8 down
Let's look at some molecules and their measured z-score.
reportedEndpoint: z-score

molecule | readoutValue
C=CC[C@]12N=C(c3ccc(OCCCO)cc3)O[C@H]1c1ccccc1N(CCC)C2=O | -3.39
COCCOC(=O)N1C(=O)[C@@]2(c3cc(C#CC4=CCCCC4)ccc31)[C@H](C(=O)N1CCCCCCC1)[C@H]1C(=O)O[C@H](c3ccccc3)[C@H](c3ccccc3)N1[C@@H]2c1ccccc1OCCO | -5.21
CS(=O)(=O)CCOC(=O)C1=CC(CCCO)=CC(C2CC2)N(Cc2sc3ccccc3c2Cl)C=C1C(=O)OCCS(C)(=O)=O (stereo not drawn) | -2.27
O=C1O[C@H](c2ccccc2)[C@H](c2ccccc2)N2[C@H]1[C@@H](C(=O)O)[C@]1(C(=O)Nc3ccccc31)[C@H]2c1ccc(OCCO)cc1 | 0.234
COCCOC(=O)N1C(=O)[C@@]2(c3cc(C#CC4=CCCCC4)ccc31)[C@H](c1ccc(O)cc1)N1[C@H](c3ccccc3)[C@H](c3ccccc3)OC(=O)[C@H]1[C@@H]2C(=O)N1CCc2cc(OC)c(OC)cc2C1 | -0.713
O=C1NC(=O)C2C1C=CC(C(O)C1CCCCC1)N2Nc1ccccn1 (stereo not drawn) | 1.06
COC(=O)[C@@]1(Cc2ccc(OC)cc2)[C@H]2c3cc(C(=O)N(C)C)n(Cc4c(CO)[nH]cc(C)c4=O)c3C[C@H]2CN1C(=O)c1ccccc1 | -0.0137
O=C/C=C/c1ccc(-c2ccccc2)cc1 | -2.73
COc1ccc(C(O)C2C=CC3C(=O)N(C)C(=O)C3N2Nc2ccccc2)cc1 (stereo not drawn) | -2.05
COc1ccc([Si](C)(C)[C@@H]2[C@@H](CC(=O)N(CCO)Cc3ccccc3)O[C@]3(C(=O)N(Cc4cccc(I)c4)c4ccccc43)[C@H]2C)cc1 | -4.61
[N-]=[N+]=NCc1ccccc1C[C@@]1(C(=O)NCCN2CCOCC2)N=C(c2ccc(OCCCO)cc2)O[C@@H]1c1ccccc1 | -3.38
C=C[C@@H](CO)NS(=O)(=O)c1ccc(Br)cc1 | -2.14
C=CCNC(=O)[C@H]1[C@@H]2C(=O)O[C@@H](c3ccccc3)[C@@H](c3ccccc3)N2[C@@H](c2ccc(OCCO)cc2)[C@]12C(=O)N(C(=O)OCCOC)c1ccc(C#CCNC(N)=O)cc12 | -0.646
O=C1NC(=O)C2C1C=CC(C(O)C(O)CO)N2Nc1ccccn1 (stereo not drawn) | 0.165
CN1C(=O)C2CC=C(C3=CCO[C@@H]3[C@H]3CCCN3S(=O)(=O)c3ccccc3[N+](=O)[O-])CC2C1=O (stereo partly drawn) | 0.459
COC(=O)[C@@]1(Cc2ccc(F)cc2)[C@H]2c3cc(C(=O)N4CCCC4)n(CCc4c[nH]c5cc(F)ccc45)c3C[C@H]2CN1C(=O)c1ccccc1 | -2.66
CCOC(=O)C[C@H]1[C@H](OC(=O)c2ccc(-c3ccccc3)cc2)[C@@H](NC(=O)c2ccc(-c3ccccc3)cc2)c2cc(OCCCO)ccc2N1C(=O)c1ccccc1 | -0.212
COC(=O)C(CC#Cc1ccc2c(c1)[C@]1(C(=O)N2)[C@H](C(N)=O)[C@H]2C(=O)O[C@H](c3ccccc3)[C@H](c3ccccc3)N2[C@@H]1c1ccccc1OCCO)C(=O)OC | -6.25
Cc1ccc(S[C@]2(C(=O)NCCN3CCOCC3)CC(=O)N(C(C)C)[C@@H]2c2ccc(CO)cc2I)cc1 | -2.88
O=C1C2C=CC(C(O)c3ccccn3)N(Nc3ccc([N+](=O)[O-])cc3)C2C(=O)N1c1ccccc1 (stereo not drawn) | -0.476
COc1ccc(CCNC(=O)[C@@]2(C)c3ccccc3C(=O)N(Cc3ccc(OC(F)(F)F)cc3)[C@H]2c2ccc(CO)cc2)cc1 | -4.18
CCCC1(C(=O)OC)C=C2C(=C(C(C)C)C(=O)C2C)CN1 (stereo not drawn) | -0.349
O=C1O[C@@H](c2ccccc2)[C@@H](c2ccccc2)N2[C@@H](c3ccccc3OCCO)[C@]3(C(=O)Nc4ccc(C#CC5(O)CCCCCC5)cc43)[C@@H](C(=O)N3CCCCCCC3)[C@H]12 | -5.6
C=C(C)C1CN([C@H](CO)c2ccccc2)C(=O)/C1=C\c1ccccc1 (stereo partly drawn) | -4.75
CC(C)(C)OC(=O)CC[C@@]1(C(N)=O)N=C(c2ccc(OCCCO)cc2)O[C@@H]1c1ccccc1CN=[N+]=[N-] | -0.57
COC(=O)Cn1c(C(=O)N(C)C)cc2c1C[C@H]1CN(C(=O)c3ccccc3)[C@@](Cc3ccccc3)(C(=O)OC)[C@@H]21 | -0.273
C=CCNC(=O)[C@H]1[C@@H]2C(=O)O[C@@H](c3ccccc3)[C@@H](c3ccccc3)N2[C@@H](c2ccc(O)cc2)[C@]12C(=O)Nc1ccc(C#CCC(C(=O)OC)C(=O)OC)cc12 | 0.15
COc1cccc(C)c1NC(=O)O[C@H]1[C@H](OC(=O)Nc2ccc3c(c2)OCO3)[C@H](OC(=O)Nc2ccc3c(c2)OCO3)[C@@H](OC)O[C@@H]1CO | -2.59
